Numbers sourced from the supplement of paper PMC9262897.

Tested on: E. coli TESEC Mtb Alr
Assay: growth (OD600 after 10 h); higher = more growth (less inhibition)
Conditions: arabinose 100000 nM; compound 0.1 mM; raw OD600 reference: median of DMSO wells 0.201, cell-free background 0.041
Where a name gives a salt, the structure may show the parent alone.
Measured Attribute: growth

{"Compound": "CCCNC(C)C(=O)Nc1c(C)csc1C(=O)OC (stereo not given) [Articaine hydrochloride]", "Measurement": 0.213}
{"Compound": "CC(C)(C)NC(=O)[C@H]1CC[C@H]2[C@@H]3CC[C@H]4NC(=O)C=C[C@]4(C)[C@H]3CC[C@]12C [Finasteride]", "Measurement": 0.133}
{"Compound": "C[C@H]1O[C@H](O[C@H]2[C@H](O)[C@@H](O)[C@@H](O[C@@H]([C@H](O)[C@@H](O)C=O)[C@H](O)CO)O[C@@H]2CO)[C@H](O)[C@@H](O)[C@@H]1N[C@H]1C=C(CO)[C@@H](O)[C@H](O)[C@H]1O", "Measurement": 0.244}
{"Compound": "CCN(CC)CCCC(C)Nc1c2ccc(Cl)cc2nc2ccc(OC)cc12 (stereo not given) [Quinacrine dihydrochloride hydrate]", "Measurement": 0.104}
{"Compound": "CC(C)(C)NCC(O)COc1cccc2c1CC(O)C(O)C2 (stereo not given)", "Measurement": 0.192}
{"Compound": "CCCCNC(=O)NS(=O)(=O)c1ccc(C)cc1 [Tolbutamide]", "Measurement": 0.191}
{"Compound": "c1ccc(CNc2ncnc3nc[nH]c23)cc1", "Measurement": 0.19}
{"Compound": "CCn1cc(C(=O)O)c(=O)c2ccc(C)nc21 [Nalidixic acid sodium salt]", "Measurement": 0.0502}
{"Compound": "Cc1c(-c2ccccc2)oc2c(C(=O)OCCN3CCCCC3)cccc2c1=O [Flavoxate hydrochloride]", "Measurement": 0.145}
{"Compound": "C[C@]12CC[C@@H]3c4ccc(O)cc4C[C@@H](CCCCCCCCC[S+]([O-])CCCC(F)(F)C(F)(F)F)[C@H]3[C@@H]1CC[C@@H]2O (stereo not given in full)", "Measurement": 0.195}
{"Compound": "CCN(CC)CCOC(=O)C(c1ccccc1)C1CCCCC1 (stereo not given) [Drofenine hydrochloride]", "Measurement": 0.16}
{"Compound": "C[C@]12CC[C@@H]3c4ccc(OS(=O)(=O)O)cc4CC[C@H]3[C@@H]1CCC2=O [Estropipate]", "Measurement": 0.177}
{"Compound": "CO/N=C(\\C(=O)N[C@@H]1C(=O)N2C(C(=O)O)=C(COC(C)=O)CS[C@H]12)c1csc(N)n1 [Cefotaxime sodium salt]", "Measurement": 0.0388}
{"Compound": "C=CC1=C(C(=O)O)N2C(=O)[C@@H](NC(=O)/C(=N\\O)c3csc(N)n3)[C@H]2SC1", "Measurement": 0.038}
{"Compound": "CNCC[C@@H](Oc1ccccc1C)c1ccccc1 [Tomoxetine hydrochloride]", "Measurement": 0.211}

---

System: E. coli TESEC Mtb Asd
Test: growth (OD600 after 10 h); higher = more growth (less inhibition)
Settings: arabinose induction (level): High; compound 0.1 mM; raw OD600 reference: median of DMSO wells 0.331, cell-free background 0.041
Structures can show the parent of a compound that is named as a salt.
Please enter satisfied where growth is greater than or equal to 0.2, and not satisfied where it is lower.

{"Molecule": "NC(=O)NC1NC(=O)NC1=O (centres undefined) [Allantoin]", "Test Target": "E. coli TESEC Mtb Asd", "Group Label": "satisfied"}
{"Molecule": "Cc1ncc(C[n+]2csc(CCO)c2C)c(N)n1 [Thiamine hydrochloride]", "Test Target": "E. coli TESEC Mtb Asd", "Group Label": "satisfied"}
{"Molecule": "C[C@H]1[C@H](NC(=O)/C(=N\\OC(C)(C)C(=O)O)c2csc(N)n2)C(=O)N1S(=O)(=O)O [Aztreonam]", "Test Target": "E. coli TESEC Mtb Asd", "Group Label": "not satisfied"}
{"Molecule": "C[N+](C)(C)CCOC(N)=O [Carbachol]", "Test Target": "E. coli TESEC Mtb Asd", "Group Label": "satisfied"}
{"Molecule": "O=C(NCCNCC(O)COc1ccc(O)cc1)N1CCOCC1 (centres undefined) [Xamoterol hemifumarate]", "Test Target": "E. coli TESEC Mtb Asd", "Group Label": "satisfied"}
{"Molecule": "Cc1ccsc1/C=C/C1=NCCCN1C [Morantel tartrate]", "Test Target": "E. coli TESEC Mtb Asd", "Group Label": "satisfied"}
{"Molecule": "C[C@@H]1NC(=O)NC1=O [Methylhydantoin-5-(L)]", "Test Target": "E. coli TESEC Mtb Asd", "Group Label": "satisfied"}
{"Molecule": "NCC[C@H](O)C(=O)N[C@@H]1C[C@H](N)[C@@H](O[C@H]2O[C@H](CN)[C@@H](O)[C@H](O)[C@H]2O)[C@H](O)[C@H]1O[C@H]1O[C@H](CO)[C@@H](O)[C@H](N)[C@H]1O [Amikacin hydrate]", "Test Target": "E. coli TESEC Mtb Asd", "Group Label": "not satisfied"}
